system: Staphylococcus aureus; test: Antibacterial activity against Staphylococcus aureus ATCC 25923 at 500 ug/mL after 24 hrs by well plate method; assay type: functional; details: ATCC 25923, 24 h, read-out: DIZ
In this section, each of the molecules is paired with its reported zone of inhibition at 500 µg/mL.

>  <Molecule>
COc1cc(C2CC(=NOC(=O)c3cc(O)cc(O)c3)CC(c3ccc(O)c(OC)c3)N2C)ccc1O (stereo not given)

>  <Target>
Staphylococcus aureus

>  <zone of inhibition at 500 µg/mL, mm>
5

$$$$
>  <Molecule>
COc1ccc(C(=O)ON=C2CC(c3ccc(O)c(OC)c3)N(C)C(c3ccc(O)c(OC)c3)C2)cc1 (stereo not given)

>  <Target>
Staphylococcus aureus

>  <zone of inhibition at 500 µg/mL, mm>
2

$$$$
>  <Molecule>
COc1cc(C2CC(=NOC(=O)c3cc(OC)c(OC)c(OC)c3)CC(c3ccc(O)c(OC)c3)N2C)ccc1O (stereo not given)

>  <Target>
Staphylococcus aureus

>  <zone of inhibition at 500 µg/mL, mm>
4

$$$$
>  <Molecule>
CN[C@@H]1[C@H](O[C@H]2[C@H](O[C@H]3[C@H](O)[C@@H](O)[C@H](N=C(N)N)[C@@H](O)[C@@H]3N=C(N)N)O[C@@H](C)[C@]2(O)C=O)O[C@@H](CO)[C@H](O)[C@H]1O [STREPTOMYCIN]

>  <Target>
Staphylococcus aureus

>  <zone of inhibition at 500 µg/mL, mm>
12

$$$$
>  <Molecule>
COc1cc(C2CC(=NOC(=O)c3ccccc3O)CC(c3ccc(O)c(OC)c3)N2C)ccc1O (stereo not given)

>  <Target>
Staphylococcus aureus

>  <zone of inhibition at 500 µg/mL, mm>
5

$$$$
>  <Molecule>
COc1cc(C2CC(=NOC(=O)c3ccc(F)cc3)CC(c3ccc(O)c(OC)c3)N2C)ccc1O (stereo not given)

>  <Target>
Staphylococcus aureus

>  <zone of inhibition at 500 µg/mL, mm>
13

$$$$
>  <Molecule>
COc1cc(C2CC(=NOC(=O)c3ccc(Br)cc3)CC(c3ccc(O)c(OC)c3)N2C)ccc1O (stereo not given)

>  <Target>
Staphylococcus aureus

>  <zone of inhibition at 500 µg/mL, mm>
7

$$$$
>  <Molecule>
COc1cc(C2CC(=NOC(=O)c3ccc([N+](=O)[O-])cc3)CC(c3ccc(O)c(OC)c3)N2C)ccc1O (stereo not given)

>  <Target>
Staphylococcus aureus

>  <zone of inhibition at 500 µg/mL, mm>
5

$$$$
>  <Molecule>
COc1cc(C2CC(=NOC(=O)c3ccc(O)cc3)CC(c3ccc(O)c(OC)c3)N2C)ccc1O (stereo not given)

>  <Target>
Staphylococcus aureus

>  <zone of inhibition at 500 µg/mL, mm>
4

$$$$
>  <Molecule>
COc1ccc(C(=O)ON=C2CC(c3ccc(O)c(OC)c3)N(C)C(c3ccc(O)c(OC)c3)C2)c(OC)c1 (stereo not given)

>  <Target>
Staphylococcus aureus

>  <zone of inhibition at 500 µg/mL, mm>
3

$$$$
>  <Molecule>
COc1cc(C2CC(=NOC(=O)c3ccccc3)CC(c3ccc(O)c(OC)c3)N2C)ccc1O (stereo not given)

>  <Target>
Staphylococcus aureus

>  <zone of inhibition at 500 µg/mL, mm>
3

$$$$
>  <Molecule>
COc1cc(C2CC(=NOC(=O)c3cc(O)c(O)c(O)c3)CC(c3ccc(O)c(OC)c3)N2C)ccc1O (stereo not given)

>  <Target>
Staphylococcus aureus

>  <zone of inhibition at 500 µg/mL, mm>
4

$$$$
>  <Molecule>
COc1cc(C2CC(=NOC(=O)c3ccc(Cl)cc3)CC(c3ccc(O)c(OC)c3)N2C)ccc1O (stereo not given)

>  <Target>
Staphylococcus aureus

>  <zone of inhibition at 500 µg/mL, mm>
9

$$$$
>  <Molecule>
COc1cc(C2CC(=NO)CC(c3ccc(O)c(OC)c3)N2C)ccc1O (stereo not given)

>  <Target>
Staphylococcus aureus

>  <zone of inhibition at 500 µg/mL, mm>
0

$$$$
>  <Molecule>
COc1cc(C2CC(=NOC(=O)c3cccc(O)c3)CC(c3ccc(O)c(OC)c3)N2C)ccc1O (stereo not given)

>  <Target>
Staphylococcus aureus

>  <zone of inhibition at 500 µg/mL, mm>
5

$$$$

---

system: Escherichia coli; assay: Antibacterial activity against Escherichia coli ATCC 25922 at 500 ug/mL after 24 hrs by well plate method; type: functional; conditions: ATCC 25922, 24 h, read-out: DIZ
Answer N if zone of inhibition at 500 µg/mL is under 4 mm, and Y if it is 4 mm or more.

>  <Compound>
COc1cc(C2CC(=NOC(=O)c3ccc(Cl)cc3)CC(c3ccc(O)c(OC)c3)N2C)ccc1O (stereo unspecified)

>  <Cat>
Y

$$$$
>  <Compound>
COc1cc(C2CC(=NOC(=O)c3ccccc3)CC(c3ccc(O)c(OC)c3)N2C)ccc1O (stereo unspecified)

>  <Cat>
N

$$$$
>  <Compound>
COc1cc(C2CC(=NOC(=O)c3cc(O)cc(O)c3)CC(c3ccc(O)c(OC)c3)N2C)ccc1O (stereo unspecified)

>  <Cat>
Y

$$$$
>  <Compound>
COc1cc(C2CC(=NOC(=O)c3ccc(Br)cc3)CC(c3ccc(O)c(OC)c3)N2C)ccc1O (stereo unspecified)

>  <Cat>
Y

$$$$
>  <Compound>
CN[C@@H]1[C@H](O[C@H]2[C@H](O[C@H]3[C@H](O)[C@@H](O)[C@H](N=C(N)N)[C@@H](O)[C@@H]3N=C(N)N)O[C@@H](C)[C@]2(O)C=O)O[C@@H](CO)[C@H](O)[C@H]1O [STREPTOMYCIN]

>  <Cat>
Y

$$$$
>  <Compound>
COc1cc(C2CC(=NOC(=O)c3cc(O)c(O)c(O)c3)CC(c3ccc(O)c(OC)c3)N2C)ccc1O (stereo unspecified)

>  <Cat>
Y

$$$$
>  <Compound>
COc1cc(C2CC(=NO)CC(c3ccc(O)c(OC)c3)N2C)ccc1O (stereo unspecified)

>  <Cat>
N

$$$$

---

system: Escherichia coli; assay: Antibacterial activity against Escherichia coli ATCC 25922 at 500 ug/mL after 24 hrs by well plate method; type: functional; conditions: ATCC 25922, 24 h, read-out: DIZ
Quantity: zone of inhibition at 500 µg/mL

>  <Compound>
COc1cc(C2CC(=NOC(=O)c3cc(OC)c(OC)c(OC)c3)CC(c3ccc(O)c(OC)c3)N2C)ccc1O (centres undefined)

>  <Target>
Escherichia coli

>  <Recorded measurement>
4 mm

$$$$
>  <Compound>
COc1ccc(C(=O)ON=C2CC(c3ccc(O)c(OC)c3)N(C)C(c3ccc(O)c(OC)c3)C2)cc1 (centres undefined)

>  <Target>
Escherichia coli

>  <Recorded measurement>
2 mm

$$$$
>  <Compound>
COc1cc(C2CC(=NOC(=O)c3cccc(O)c3)CC(c3ccc(O)c(OC)c3)N2C)ccc1O (centres undefined)

>  <Target>
Escherichia coli

>  <Recorded measurement>
6 mm

$$$$
>  <Compound>
COc1cc(C2CC(=NOC(=O)c3ccc(F)cc3)CC(c3ccc(O)c(OC)c3)N2C)ccc1O (centres undefined)

>  <Target>
Escherichia coli

>  <Recorded measurement>
13 mm

$$$$

---

test system: Candida albicans; test: Antifungal activity against Candida albicans MTCC 3017 at 500 ug/mL after 72 hrs by well plate method; format: functional; details: MTCC 3017, 72 h, read-out: DIZ
Answer N if zone of inhibition at 500 µg/mL is under 5 mm, and Y if it is 5 mm or more.

>  <Molecule>
COc1cc(C2CC(=NOC(=O)c3ccc(Cl)cc3)CC(c3ccc(O)c(OC)c3)N2C)ccc1O (centres undefined)

>  <Cat>
Y

$$$$
>  <Molecule>
COc1cc(C2CC(=NOC(=O)c3ccccc3O)CC(c3ccc(O)c(OC)c3)N2C)ccc1O (centres undefined)

>  <Cat>
N

$$$$
>  <Molecule>
COc1cc(C2CC(=NOC(=O)c3ccc(F)cc3)CC(c3ccc(O)c(OC)c3)N2C)ccc1O (centres undefined)

>  <Cat>
Y

$$$$
>  <Molecule>
COc1cc(C2CC(=NO)CC(c3ccc(O)c(OC)c3)N2C)ccc1O (centres undefined)

>  <Cat>
N

$$$$
>  <Molecule>
COc1cc(C2CC(=NOC(=O)c3cccc(O)c3)CC(c3ccc(O)c(OC)c3)N2C)ccc1O (centres undefined)

>  <Cat>
N

$$$$
>  <Molecule>
COc1cc(C2CC(=NOC(=O)c3cc(OC)c(OC)c(OC)c3)CC(c3ccc(O)c(OC)c3)N2C)ccc1O (centres undefined)

>  <Cat>
N

$$$$
>  <Molecule>
COc1cc(C2CC(=NOC(=O)c3ccc(Br)cc3)CC(c3ccc(O)c(OC)c3)N2C)ccc1O (centres undefined)

>  <Cat>
Y

$$$$
>  <Molecule>
COc1ccc(C(=O)ON=C2CC(c3ccc(O)c(OC)c3)N(C)C(c3ccc(O)c(OC)c3)C2)c(OC)c1 (centres undefined)

>  <Cat>
N

$$$$
